All figures here come from patent US11578078B2.

Experiment: in vivo pharmacokinetics, plasma and brain exposure
Set-up: species or system rodents
Details: rodents; brain AUC0-6 / plasma AUC0-6; read-out: Ratio (Brain/Plasma)
quantity-measured: Kp

mol=CN1C(=O)[C@@H](NC(=O)c2nn(Cc3ccccc3)cc2F)COc2ccc(N3CC4(CCOCC4)C3)cc21 quantity_measured=Kp recorded_result=0.56
